# measurement.description: NCI Yeast Anticancer Drug Screen. Data for the cln2 rad14 strain (AID 165);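 also: 0% = growth equal to vehicle treated cultures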
# experimental.setup: S. cerevisiae cln2 rad14 strain, at 50.0 µM
About 79,000 compounds went through this panel and 15% of them were active in at least one assay; those are over-represented in the sample as a whole. The source made the active and inactive calls. Rule as the data show it: active = growth inhibition above about 70%; inactive = the rest.
Respond using exactly one of the listed classes: 1 = active, -1 = inactive

Example entries begin here.
molecule	class.assignment
Cc1ccc(S(=O)(=O)NNc2nc(N3CCOCC3)nc(N3CCOCC3)n2)cc1	1
Cc1cc(Br)c(P(=O)(O)O)cc1[N+](=O)[O-]	-1

stdin: Identify the outcome logged in this assay for the molecule shown: CCOc1ccc2nc([NH-])sc2c1.CCOc1ccc2nc([NH-])sc2c1.[Cl][Pt+2][Cl]
stdout: -1

stdin: Identify the outcome logged in this assay for the molecule shown: COc1ccc2nc(NC(=O)Nc3c(Cl)cccc3Cl)sc2c1
stdout: 1

stdin: Identify the outcome logged in this assay for the molecule shown: Cc1cc(NCCCCCCCNc2cc(C)nc3cc(N)ccc23)c2ccc(N)cc2n1
stdout: 1

stdin: Identify the outcome logged in this assay for the molecule shown: CC(C)(C)c1ccc(C(C)(C)C)cc1
stdout: -1

stdin: Identify the outcome logged in this assay for the molecule shown: CC(=O)OC1CCC2(C)C(CCC3C2CCC2(C)C4CCC32OC(=O)C4CC(=O)O)C1 (configuration not stated)
stdout: 1

stdin: Identify the outcome logged in this assay for the molecule shown: NC(=O)SCC(=O)Nc1ccccc1
stdout: 1

stdin: Identify the outcome logged in this assay for the molecule shown: CCC1CCC(CC)C1O (configuration not stated)
stdout: -1

stdin: Identify the outcome logged in this assay for the molecule shown: Cc1cc(C)c(O)c(C2CC3CCC2(C)C3(C)C)c1 (configuration not stated)
stdout: 1

stdin: Identify the outcome logged in this assay for the molecule shown: O=C(OCC1OC(OCC(OC(=O)c2ccccc2)C(OC(=O)c2ccccc2)C(OC(=O)c2ccccc2)c2cnn(-c3ccccc3)n2)C(OC(=O)c2ccccc2)C(OC(=O)c2ccccc2)C1OC(=O)c1ccccc1)c1ccccc1 (configuration not stated)
stdout: 1

stdin: Identify the outcome logged in this assay for the molecule shown: [O-]/[N+]1=[N+](\[O-])c2ccccc2CCc2ccccc21
stdout: -1

----------
# measurement.description: NCI Yeast Anticancer Drug Screen. Data for the rad50 strain (AID 155);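 also: 0% = growth of vehicle-only cultures of the same strain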
# experimental.setup: S. cerevisiae rad50 strain growth inhibition; at 5.0 µM (retest, dose inferred, filed as 0.5); stronger effect = higher value
About 79,000 compounds went through this panel and 15% of them were active in at least one assay; those are over-represented in the sample as a whole.
parameter.measured: growth inhibition (%)
Response body: numeric value in %, unit text excluded.

See these solved cases before continuing.
                                   compound  observed_measurement
0  C/C=C/c1cc2c(cc1O)CC[C@@H]1[C@@H]2CC[C@]2(C)[C@@H](O)CC[C@@H]12                    25
1  CCN(CCN1C(=O)C2CCCCC2C1=O)c1ccc(N=O)c(C)c1 (stereo not given)                    71
2  Nc1ccccc1[S][Sn]([c]1ccccc1)([c]1ccccc1)[c]1ccccc1                    99
3  NC(=O)C1CCCN1C(=O)C1CCCN(Cc2cc(CN3CCCC(C(=O)N4CCCC4C(N)=O)C3)cc(CN3CCCC(C(=O)N4CCCC4C(N)=O)C3)c2)C1 (stereo not given)                     2
4                        Cc1ccc(COCO)c(O)c1                    -1

stdin: What measured growth inhibition goes with NC(c1ccccc1)P(=O)(OCc1ccc([N+](=O)[O-])cc1)OCc1ccc([N+](=O)[O-])cc1 (stereo not given) ?
stdout: 15

stdin: What measured growth inhibition goes with CCCCCC(/C=N/NC(N)=S)C(O)(C(F)(F)F)C(F)(F)F (stereo not given) ?
stdout: -21

----------
# measurement.description: NCI Yeast Anticancer Drug Screen. Data for the rad50 strain (AID 155);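 also: 0% = growth of vehicle-only cultures of the same strain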
# experimental.setup: S. cerevisiae rad50 strain growth inhibition; at 50.0 µM; stronger effect = higher value
About 79,000 compounds went through this panel and 15% of them were active in at least one assay; those are over-represented in the sample as a whole. Where a SMILES comes first, the peptide text is derived from it. The star is where a group is joined. X7 = Clc1c(Cl)c(Cl)c(O*)c(Cl)c1Cl; Boc = CC(C)(C)OC(=O)*; OBn = c1ccc(CO*)cc1; Bn = c1ccc(C*)cc1
parameter.measured: growth inhibition (%)
Response body: numeric value in %, unit text excluded.

compound	growth inhibition [%]
CC(C)(C)c1ccc(-c2nc3ccccc3c(=O)o2)cc1	55.7
CC(C)CC(NC(=O)C(CCC(=O)OCc1ccccc1)NC(=O)OC(C)(C)C)C(=O)NC(COCc1ccccc1)C(=O)NC(Cc1ccccc1)C(=O)Oc1c(Cl)c(Cl)c(Cl)c(Cl)c1Cl (stereo not given) (Boc-E(OBn)LS(Bn)F-X7; configuration not given here)	80.5

stdin: What measured growth inhibition goes with COc1ccc(C(=O)C(Br)CS(=O)(=O)c2ccc(C)cc2)cc1 (stereo not given) ?
stdout: 99

stdin: What measured growth inhibition goes with O=C1C(Cl)=C(NCCC2CCCN3CCCCC23)C(=O)c2ccccc21 (stereo not given) ?
stdout: 65.3

----------
# measurement.description: NCI Yeast Anticancer Drug Screen. Data for the rad50 strain (AID 155);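 also: 0% = growth of vehicle-only cultures of the same strain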
# experimental.setup: S. cerevisiae rad50 strain growth inhibition; at 50.0 µM (retest, dose inferred, filed as 5.0); stronger effect = higher value
This is part of a sample that, as a whole, favours compounds with a hit. Of some 79,000 tested, about 15% had one in any assay.
Lab note: anything with growth inhibition at or over 70% counts as satisfied; the rest go in not satisfied.

Example entries begin here.
>>> print(df.to_string())
                                   compound  class_assignment
0  CCCCN(CCCC)CC(O)c1cc(-c2ccc(Cl)cc2)nc2cc(C)ccc12 (stereo unspecified)         satisfied
1              COc1ccc(C2=CC(=O)C=CC2=O)cc1         satisfied
2            CC(C)n1nnc2c3ccccc3c3ccccc3c21     not satisfied
3  CC1=C(C(=O)Nc2cccc3ccccc23)C(c2cccc([N+](=O)[O-])c2)C(C(=O)Nc2cccc3ccccc23)=C(C)N1     not satisfied

stdin: Tell me whether growth inhibition is at least 70% here: Cn1cnc(=S)c2[nH]cnc21
stdout: not satisfied

----------
# measurement.description: NCI Yeast Anticancer Drug Screen. Data for the mec2-1 strain (AID 157)
# experimental.setup: S. cerevisiae mec2-1 strain, at 5.0 µM (retest, dose inferred, filed as 0.5), stronger effect = higher value
This is part of a sample that, as a whole, favours compounds with a hit. Of some 79,000 tested, about 15% had one in any assay.
Quick list: growth inhibition per entry.
Response body: numeric value in %, unit text excluded.

See these solved cases before continuing.
>>> df
                                   compound  parameter_measured  observed_measurement
0  Nc1nnc2nc(CC(=O)c3ccc([N+](=O)[O-])cc3)c(CC(=O)c3ccc([N+](=O)[O-])cc3)nn12   growth inhibition                    15
1      Cc1cc(SCC(=O)c2ccc(Cl)cc2)cc(C)[o+]1   growth inhibition                    -1
2  CC/C=C\C/C=C\C/C=C\CCCCCCCC(=O)OCC(O)CO (stereo not given)   growth inhibition                     0
3  COc1cccc(/C=C2\CCC(CN(C)C)C2=O)c1 (stereo not given)   growth inhibition                    21
4  CC1OC(OP(=O)(OCc2ccccc2)OCc2ccccc2)C(OC(=O)c2ccccc2)C(OC(=O)c2ccccc2)C1I (stereo not given)   growth inhibition                    33

stdin: What measured growth inhibition goes with O=C(c1ccccc1)c1cccc2ccccc12 ?
stdout: -5

stdin: What measured growth inhibition goes with O=[N+]([O-])/C(Cl)=C/C(=C1/Nc2ccccc2O1)[N+](=O)[O-] ?
stdout: -11

stdin: What measured growth inhibition goes with CC(=O)N[C@H]1CC[C@H]2[C@@H]3CCC4=CC(=O)CC[C@]4(C)[C@H]3CC[C@]12C ?
stdout: -11

stdin: What measured growth inhibition goes with O=C1c2ccccc2C(=O)c2sc(Nc3cc(Cl)ccc3Cl)nc21 ?
stdout: 72

stdin: What measured growth inhibition goes with CC1(C)CC(=O)C(C(c2ccc3c(c2)OCO3)N2CCOCC2)C(=O)C1 (stereo not given) ?
stdout: 9

stdin: What measured growth inhibition goes with COc1cc2c(Cc3ccc(OC)c(OC)c3)[n+](Cc3ccccc3)ccc2cc1NCc1ccccc1 ?
stdout: 90

----------
# measurement.description: NCI Yeast Anticancer Drug Screen. Data for the cln2 rad14 strain (AID 165);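 also: 0% = growth equal to vehicle treated cultures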
# experimental.setup: S. cerevisiae cln2 rad14 strain, at 50.0 µM, stronger effect = higher value
This is part of a sample that, as a whole, favours compounds with a hit. Of some 79,000 tested, about 15% had one in any assay.
Quick list: growth inhibition per entry.
Response body: numeric value in %, unit text excluded.

See these solved cases before continuing.
>>> df
                                   compound  observed_measurement
0  C#CCCCCCOC(=O)c1cc([N+](=O)[O-])cc([N+](=O)[O-])c1                  98.1
1                      CCCN1CSC(=S)N(CCC)C1                  32.1
2           CCCCOC(=O)c1n[nH]c(C)c1N=NN(C)C                  99.4
3               CCOC(=O)c1cnn(-c2ccccc2)c1N                  86.6
4              Cc1cc(I)ccc1NC(=S)Nc1ccccc1F                    70

stdin: What measured growth inhibition goes with COc1ccc(C2=Nc3cc(C)c(C)cc3NC(c3ccccc3)C2)cc1 (centres undefined) ?
stdout: 9.5

stdin: What measured growth inhibition goes with CC(C)c1ccc2c(c1)CCC1C(C)(CNC(=O)S)CCCC21C.[Zn+2] (centres undefined) ?
stdout: 38.5

stdin: What measured growth inhibition goes with CCN(CC)CC(O)c1ccc2cc(Cl)c3ccccc3c2c1 (centres undefined) ?
stdout: 99.3

stdin: What measured growth inhibition goes with CC(C)c1ccc2c(c1)CCC1C(C)(CN)CCCC21C (centres undefined) ?
stdout: 98.7

stdin: What measured growth inhibition goes with CC1=C(C(=O)Nc2cccc3ccccc23)C(c2cccc([N+](=O)[O-])c2)C(C(=O)Nc2cccc3ccccc23)=C(C)N1 ?
stdout: 70.6

stdin: What measured growth inhibition goes with O=[N+]([O-])/C(C=Nc1ccccc1)=C/Nc1ccccc1 ?
stdout: 37.5
